test system: UACC-62 melanoma; assay: NCI tumour cell line growth inhibition, 48 h
quantity_name: TGI

COC(=O)C1CCC(C)CC1=O (stereo unspecified)	> 100 µM

Challenge: // TGI lookup, key: C/C(CCN(C)C)=N/O
Response given: 24 µM

Challenge: // TGI lookup, key: Cc1ccc(-n2nc(C(OC3OC(CO)C(O)C(O)C3O)C(O)CO)c3nc4cc(C)c(C)cc4nc32)cc1 (stereo unspecified)
Response given: > 100 µM

* * *

system: LOX IMVI melanoma; assay: NCI tumour cell line growth inhibition, 48 h
Quick list: TGI per entry.

The cases that follow already have their TGI on record.
CC(=O)CCC1(C(=O)OCC(C)C)CCCC1=O (stereo not drawn)	> 100 µM
CCc1c(OC(C)=O)c2c(NC3OC(COC(C)=O)C(OC(C)=O)C(OC(C)=O)C3OC(C)=O)nc(SC)nc2oc1=O (stereo not drawn)	> 100 µM

// switching to the query compound
Challenge: // TGI lookup, key: CCc1c(O)nc(Nc2nc3ccccc3[nH]2)[nH]c1=O
Response given: > 100 µM
